// compounds with pKi on Aurora kinase A (Homo sapiens, UniProt O14965), multi-source literature
pKi: −log10 of the molar value.
measuredParameter: pKi

* CN[C@H]1CCCN(c2cc(Nc3ncc(C)s3)nc(Sc3ccc(NC(=O)C4CC4)cc3)n2)C1 | ≥ 8.00
* CNC(=O)Cn1cc(Nc2ncc(Cl)c(N[C@H]3[C@@H](C(N)=O)[C@@H]4C=C[C@H]3C4)n2)cn1 | > 7.00
* COc1ccc(NN=C2C(=O)NN=C2c2ccc(OC)cc2)cc1 | 6.00 to 7.00
* CCC(=O)Nc1ccc(Sc2nc(Nc3cc(C)[nH]n3)cc(N3CCC4(CC3)OCCO4)n2)cc1 | ≥ 8.00
* Cn1cc(Nc2ncc(F)c(N[C@@H]3C[C@H]4CC[C@@H]3C4)n2)cn1.Cn1cc(Nc2ncc(F)c(N[C@H]3C[C@@H]4CC[C@H]3C4)n2)cn1 (mixture of isomers) | 5.30 to 6.00
* CN(C)CCNC(=O)c1ccc(-c2cnc3c(-c4ccccn4)c(N)nn3c2)nc1 | 5.30 to 6.30
* Clc1ccccc1-c1nc(Nc2n[nH]c3ccccc23)c2ccccc2n1 | 4.70 to 6.00
* c1ccc(-c2nc(Nc3cc(C4CCCC4)n[nH]3)c3ccccc3n2)cc1 | > 7.00
* Nc1nn2cc(-c3ccc(N4CCC[C@H]4CN4CCCC4)nc3)cnc2c1-c1ccccn1 | 5.30 to 6.30
* Fc1c(Cl)cccc1-c1cnoc1-c1c[nH]c2ncccc12 | 6.00 to 6.70
* Cn1cc(Nc2ncc(F)c(N[C@@H]3CCC[C@@H]3C(N)=O)n2)cn1.Cn1cc(Nc2ncc(F)c(N[C@H]3CCC[C@H]3C(N)=O)n2)cn1 (mixture of isomers) | < 5.30
* COc1ccncc1-c1cnc2c(-c3ccccn3)c(N)nn2c1 | 5.30 to 6.30
* CCC(=O)Nc1ccc(Sc2nc(Nc3cc(C)n[nH]3)cc(N3CCC(C(C)(C)O)CC3)n2)cc1 | ≥ 8.00
* Cc1cc(Nc2cc(N3CCC4(CCN(C)C4)CC3)nc(Sc3ccc(NC(=O)C4CC4)c(F)c3)n2)[nH]n1 | ≥ 8.00
* Cc1cc(Nc2cc(N3CCC(N4CCCC4)CC3)nc(Sc3ccc(NC(=O)CC4CC4)cc3)n2)n[nH]1 | ≥ 8.00
